B1: library; a variant is named by its letters at N, in order (parent)
chain: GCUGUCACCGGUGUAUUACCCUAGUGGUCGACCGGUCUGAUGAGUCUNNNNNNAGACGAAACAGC

Variants of: B1
Experiment: FACS-Seq fitted mean relative fluorescence mCherry/BFP with ligand (log10 relative fluorescence); ligand: hypoxanthine (xanthine aptamer); ligand concentration (+) FACS-Seq: 5 mM; higher = higher reporter protein expression
Conditions: HEK293T, ligand present: yes
The entries below are paired with their reported FACS-Seq fitted mean (log10).
The answer should be a number; do not append a unit.

Answered cases to consult:
residue_change	measured_metric	value_observed
UAGUCC	FACS-Seq fitted mean (log10)	0.646
AAACGU	FACS-Seq fitted mean (log10)	0.519
AAUUCA	FACS-Seq fitted mean (log10)	0.567
GAAACC	FACS-Seq fitted mean (log10)	0.469

API: the following record is the query input.
Data point: AAAGUA ; FACS-Seq fitted mean (log10) = 0.61
